src = ChEMBL document CHEMBL5512599

Property: MIC; scope: individual compounds
Tested on: Staphylococcus aureus
Assay: Antibacterial activity against Staphylococcus aureus ATCC 6538 assessed as reduction in bacterial growth incubated for 18 to 24 hrs by broth microdilution method
Type: functional
Conditions: time 18-24 hrs

[Q] # input compound: `CC(=O)/C(=N\Nc1ccc(Cl)c(Cl)c1)C(=O)O` ; wanted: its MIC
[A] > 270 µM

[Q] # input compound: `CC(=O)/C(=N\Nc1cccc(Cl)c1)C(=O)O` ; wanted: its MIC
[A] > 270 µM

[Q] # input compound: `CC(=O)/C(=N\Nc1ccccc1)C(=O)O` ; wanted: its MIC
[A] > 270 µM

[Q] # input compound: `CC(=O)/C(=N\Nc1ccc([N+](=O)[O-])cc1)C(=O)O` ; wanted: its MIC
[A] > 270 µM
